# assay_name: qHTS Assay for Lipid Storage Modulators in Drosophila S3 Cells
# experimental_context: BODIPY lipid droplet fluorescence, 18-24 h, cells fed with added oleic acid; series mostly up to 46.1 µM
Among all 320,000 compounds or so, about 2,100 (0.66%) were called active. Inconclusive results (about 53%) are left out. The call rests on the fitted dose curve; in most records, active means well fitted inhibition curve with a large enough effect in the signal ratio, with a control signal flat (not every such curve was filed as active); inconclusive means small, poorly fitted or top-dose-only effect, or effect the other way, or a change in a side signal; inactive means flat fitted curve, though single readings scatter; the % refers to the signal ratio. Shown is part of a subset that was picked to be rich in actives.
Outcomes: active, inactive

| compound | category |
| --- | --- |
| Nc1c(Cl)c(Cl)nc(C(=O)OCC(=O)NC2CCCCC2)c1Cl | active |
| Nc1c(C(=O)NC2CCCCC2)nsc1C(=O)OCC(=O)NC1CCCCC1 | inactive |
| CC(=O)N1N=C(c2c(-c3ccccc3)c3cc(C)ccc3[nH]c2=O)CC1c1ccco1 (stereo unspecified) | inactive |
| COc1ccc(C=O)cc1Cn1ccnc1C | inactive |
| COc1ccccc1-n1c(SCC(=O)Nc2nnc(C)s2)nc2c(c1=O)SCC2 | inactive |
| O=C(COC(=O)c1nc(Cl)ccc1Cl)NC1CCCCCC1 | inactive |
| Cc1cc(C)nc(NS(=O)(=O)c2ccc(NC(=O)Nc3ccccc3F)cc2)n1 | inactive |
| O=C(COC(=O)c1c(Cl)cccc1Cl)NC1CCCCC1 | inactive |
| CN1C(=S)SC(N(O)C(=O)Nc2ccc(Cl)c(Cl)c2)C1(C)C (stereo unspecified) | inactive |
| Cc1cc(C)cc(OCC(=O)OCC(=O)NC2CCCCCCC2)c1 | inactive |
| Cc1cc(C)c(C)c(S(=O)(=O)N[C@@H](C)C(=O)OCC(N)=O)c1C | inactive |
